# System: SNB-75 CNS
# ASSAY_EXPLANATION: NCI-60 one-dose screen, 48 h (100 = growth as untreated, 0 = no growth, -100 = all killed)
# MEASUREMENT_CONTEXT: 10 µM
About 83,000 compounds went through this panel and 20% of them were active in at least one assay; those are over-represented in the sample as a whole.
Below, each of the compounds is paired with its reported growth value.
# output: bare number, implied unit %

Some entries whose results are on file:
{"columns": ["COMPOUND", "RECORDED_METRIC", "OBSERVED_MEASUREMENT"],
 "data": [
  ["c1ccc(COCC[P+](c2ccccc2)(c2ccccc2)c2ccccc2)cc1", "growth", -5.5],
  ["CCc1ccc(-c2nnc(COc3ccc(-c4nc5ccccc5[nH]4)cc3OC)o2)cc1", "growth", -27.1],
  ["O=C(C=P(c1ccccc1)(c1ccccc1)c1ccccc1)c1ccc(Br)cc1", "growth", 90.9],
  ["CCCCCCCCCCCCCCCCCBr", "growth", 84.3]
]}

The compound listed as `CCOc1nc(-c2ccccc2)cc2c(O)c(C(=O)NCCCO)[nH]c(=O)c12` has a reported growth of 88.6

The compound `Cc1ccc(S(=O)(=O)Nc2cccc3[nH]c(C(F)(F)F)nc23)cc1` showed growth equal to -4.83

// growth lookup, compound = CCCC(C)c1ccc(OCCCCCCN2CCNCC2)cc1 (centres undefined) , result: 35.9

// recorded growth for O/N=C1\CCC2CCCCC2C1 (centres undefined) : 71
